system: HEK293 cells; type: cell-based, human; settings: luminescence from secreted Gluc in supernatant 24 hours after transfection of HEK293 cells; circular RNA encoding Gluc with the named IRES (UTR truncated to 675 nt)
Measured Expression, listed per entry.
The answer should be written as a number, with no unit following it.

Example entries begin here.
Porcine reproductive and respiratory syndrome virus 2 (nucleic acid) DNA: ATGACGTATAGGTGTTGGCTCTATGCCTTGGCATTTGTATTGTCAGGAGCTGTGACCATTGGCACAGCCCAAAACTTGCTGCACAGAAACACCCTTCTGTGATAGCCTCCTTCAGGGGAGCTTAGGGTTTGTCCCTAGCACCTTGCTTCCGGAGTTGCACTGCTTTACGGTCTCTCCACCCCTTTAACC
1.29E+05
Ia Io (nucleic acid) DNA: GGTGTCCGGGTGTGTGGGATAGACCCAGATGTGCAGTGGATGCGAGCATTTGAGTCAGAGTAGGAGCAAGCCCAGGGGCAAAGGGACCACATTGTGTATCCCGAATGAAGGATCGAGATTTCTCTCCTCATTACCCGGTGTCTTGTCACTGTTGGGGGGGCCCAACAGTCTTAGTCCTATACTGCCTGATAGGGTCGCGGCTGGCCGGACTCAAGTGCTATAGTCAGTTGATTTTCACTC
1.35E+06
Felipivirus 127F (nucleic acid, listed as Felipivirus sp.) DNA: GATGTCGGATGACGGCTGGCCACCGGGGAAAAACGGCAAATGTGCACCACCTCTGCAACCCACGCCGACCACGTTTAACCATGGCGTTAGTAGGAGTGGACCACTGCAGTGGGCTCTGGTGTGCGACAGTCAGTGGTAGAGTAGACAGTCCTGACTGGGCAATGGGACCGCGTTGCGTATCCCTAGGTGGCATCGAGATTCCTCTGCTACCCACCAGCGTGGACTCCTATGGGGGGGGCCCCATAGGCTAGGTCTATACTGCCTGATAGGGTCGCGGCTGGTCGACCACTGACTGTATAACCAGTTGTAACTCACT
8.92E+06

// moving on: another record for Expression
Query Botrytis cinerea mitovirus 2 RdRp (nucleic acid, listed as Mitovirus sp.) DNA: GGAACTTTTCAGTTCCAGAAGTGGCTTTATTAAGCCTTCAAAGTTTACACTTTGAACCTGCGATTAATTCCCCATAGTGACTCTTGTTACTGTGAATTAGGAATAGTTGTAGTTCAACTTCTAATGAGGTGAACAATATAATAACTCATCTTATTAACCCTATACGTAGACAATTGTCCAAAGAGACAGTTGGAATTCTGCCAATCTGGAATGTTTGGTACGCGTAGAAGATAATAAGAGACCCTCTATTCCCCTGCCTCATGACTAAGTCATGGCCCGGGGTGTAATAGAGATACTTTTATATATTATACAATC yields Expression of 8.73E+04
